B1: HNF4A (parent)
chain: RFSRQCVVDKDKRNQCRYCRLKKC

variants of: B1; assay: protein stability index of a GFP-peptide fusion (GPS, HEK-293T) (PSI 1-6); higher = more stable; conditions: c terminus: a fixed tail appended;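 also: lentivirally expressed fusions sorted by FACS into six bins by GFP to DsRed ratio, PSI derived from sequencing read proportions per bin multiplied by bin number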
recordedEndpoint: protein stability index
Answers are plain numbers.

Examples with answers:
{"columns": ["biosequence", "protein stability index"],
 "data": [
  ["RFSRQCVVDKDKRNQCRYCRLKIC [K23I]", 1.68],
  ["TFSRQCVVDKDKRNQCRYCRLKKC [R1T]", 2.24]
]}

Give measured protein stability index for every item shown.
1. RFSRQCVVDKDKRNQCRGCRLKKC [Y18G]
2. RFSRQCVVDKDKRNQFRYCRLKKC [C16F]

Result ::
3.04
2.97

Kindly give each listed record's protein stability index.
1. RFSRQCVVDKDKRNQCRYCRLKEC [K23E]
2. RFSRQCVVYKDKRNQCRYCRLKKC [D9Y]
3. RFSRQCVVDKDKMNQCRYCRLKKC [R13M]
4. RFSRQCVVDKDHRNQCRYCRLKKC [K12H]
5. RFSRQCVVDADKRNQCRYCRLKKC [K10A]
6. RFSRQCVVDKDKRNQCRYCRLKAC [K23A]

Result ::
2.04
2.33
3.02
2.93
1.7
1.89

Query :: Consider the variant shown here: RFSRQCVVDVDKRNQCRYCRLKKC [K10V] What is its recorded protein stability index?
Result :: 2.47
